assay: PSAC antagonists in infected red cells, primary screen, cell-based, P. falciparum Indochina, OD700, 2 h (AID 1155);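 note: lysis reports solute entry through the parasite surface anion channel PSAC; channel blockers reduce lysis of infected cells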; details: P. falciparum Indochina infected erythrocytes, osmotic lysis OD700, called active from +8 up or from −8 down
Calls of active or inactive are those of the source.
Outcome codes: active, inactive

{"compound": "COc1ccccc1CN1C(=O)c2ccccc2[C@](Cc2ccccc2I)(C(=O)NCC(F)(F)F)[C@@H]1c1ccc(CO)cc1", "category": "inactive"}
{"compound": "[N-]=[N+]=NCc1ccccc1C[C@@]1(C(=O)N2CCCCC2)N=C(c2ccc(OCCCO)cc2)O[C@@H]1c1ccccc1", "category": "active"}
{"compound": "COCCCNC(=O)[C@@]1(Sc2ccc(C)cc2)CC(=O)N(C2CCCCC2)[C@@H]1c1ccc(CO)cc1", "category": "inactive"}
{"compound": "O=C1N(Cc2ccccc2)c2ccccc2[C@@H]2OC(c3ccc(OCCCO)cc3)=N[C@]12Cc1ccccc1", "category": "active"}
{"compound": "O=C1O[C@H](c2ccccc2)[C@H](c2ccccc2)N2[C@H]1[C@@H](C(=O)N1CCN(c3ncccn3)CC1)[C@]1(C(=O)Nc3ccc(C#CC4(O)CCCCCC4)cc31)[C@H]2c1ccc(OCCO)cc1", "category": "inactive"}
{"compound": "CC(C)C(=C=CC[C@H](O)c1ccc(OCCO)cc1)C[C@H](O)c1ccccn1", "category": "inactive"}
{"compound": "C[C@@H]1NC(=O)[C@@]23C(=O)N[C@@H](Cc4ccccc4)C2[C@H](C)[C@@]2(C)O[C@H]2C3/C=C/C/C=C\\CNC(=O)[C@@H]2CCCN2C1=O (some centres undefined)", "category": "inactive"}
{"compound": "C=CCC(OC(C)=O)[C@@H]1[C@@H](N(Cc2ccc(-c3ccccc3)cc2)C(=O)Cc2ccc(F)cc2)c2cc(OCCCO)ccc2N1C(=O)Cc1ccc(OC)cc1 (some centres undefined)", "category": "inactive"}
{"compound": "O=C1O[C@@H](c2ccccc2)[C@@H](c2ccccc2)N2[C@@H](c3ccc(O)cc3)[C@]3(C(=O)Nc4ccc(C#CC5=CCCCC5)cc43)[C@@H](C(=O)NC[C@H](O)c3ccccc3)[C@H]12", "category": "inactive"}
{"compound": "COC(=O)[C@@]1(Cc2ccc(OC)cc2)[C@@H]2C(=CC(=O)[C@H]2CC(=O)C(=O)N(C)C)CN1C(=O)c1ccccc1", "category": "inactive"}
{"compound": "[N-]=[N+]=NCc1ccccc1[C@H]1OC(c2ccc(OCCCO)cc2)=N[C@@]1(CCS(=O)(=O)c1ccccc1)C(=O)NCC(O)CO (some centres undefined)", "category": "active"}
{"compound": "O=C1C=C(c2ccccc2)C(=O)c2ccc([C@H]3Oc4ccccc4S(=O)(=O)N4CCC[C@@H]34)cc21", "category": "inactive"}
{"compound": "COC(=O)c1cn(C[C@@H](Cc2ccccc2)NC(=O)N[C@H](CO)CCc2oc(C(C)=O)c(C(=O)OC)c2C(=O)OC)nn1", "category": "inactive"}
{"compound": "CN1C(=O)C2C=CC(C(O)c3ccc(F)cc3)N(Nc3ccccc3)C2C1=O (centres undefined)", "category": "inactive"}
